System: HEK293-hClaudin18.2 cells
Assay: In vitro cell killing activity, HEK293-hClaudin18.2 cell line (AlamarBlue)
Assay type: cell-based
Details: 72 h, read-out: IC50 values (nM), HEK293-hClaudin18.2 cells, 72 hours, AlamarBlue
Measure Name: IC50 (nM)
Give the value in nM but do not write nM after it.

Q: Provide IC50, recorded with HEK293-hClaudin18.2 cells, of `CC[C@@]1(O)C(=O)OCc2c1cc1n(c2=O)Cc2c-1nc1cc(F)c(C)c3c1c2[C@@H](N)CC3`
Ans: 0.51

---

Assay: Hydrophobic interaction chromatography (HIC) analysis of the antibody-drug conjugates
Assay type: physicochemical
Conditions: main peak of the antibody-drug conjugate, Butyl-NPR column
Numbered stars: 1 amine (or outer) side, 2 acyl side, 3 side chain; on linkers, the order of the positions; unused ones are H or OH. Square brackets hold non-standard residues; d marks the D form. Peptide text beside a SMILES is read from it. * marks the point of attachment. Dolaproine = CO[C@@H]([C@@H]1CCCN1)[C@@H](C)C(=O)O; Hexanoyl(6-maleimido) = O=C1C=CC(=O)N1CCCCCC(=O)*; Dil = CC[C@H](C)[C@H](NC)[C@@H](CC(=O)O)OC; PABC = O=C(OCc1ccc(N[*:1])cc1)[*:2]; X1 = C[N+](C)(CCCS(=O)(=O)[O-])CCN*; X2 = C[C@@H](N*)[C@@H](O)c1ccccc1; NMeV = CN[C@H](C(=O)O)C(C)C
Please go through the items and note down their HIC retention time.
Give the value in min but do not write min after it.

Q: Look up and report measured HIC retention time for this entry: `CC[C@@]1(O)C(=O)OCc2c1cc1n(c2=O)Cc2c-1nc1cc(F)c(C)c3c1c2[C@@H](NC(=O)OCc1ccc(NC(=O)CNC(=O)[C@H](Cc2ccccc2)NC(=O)CNC(=O)CNC(=O)CCCCCN2C(=O)C=CC2=O)cc1CN(C)C(=O)COP(=O)([O-])OCC[N+](C)(C)C)CC3`
Ans: 13.126

Q: Look up and report measured HIC retention time for this entry: CC[C@@]1(O)C(=O)OCc2c1cc1n(c2=O)Cc2c-1nc1cc(F)c(C)c3c1c2[C@@H](NC(=O)OCc1ccc(NC(=O)[C@H](C)NC(=O)[C@@H](NC(=O)CCCCCN2C(=O)C=CC2=O)C(C)C)cc1CN(C)C(=O)CN(C)C(=O)CN(C)C(=O)CN(C)C(=O)CN(C)C(=O)CN(C)C(=O)CN(C)C(=O)CN(C)C(=O)CN(C)C(=O)CN(C)C(=O)CN(C)C(C)=O)CC3 [LD-74, reference compound]
Ans: 13.583

Q: Look up and report measured HIC retention time for this entry: `CC[C@@]1(O)C(=O)OCc2c1cc1n(c2=O)Cc2c-1nc1cc(F)c(C)c3c1c2[C@@H](NC(=O)OCc1ccc(NC(=O)[C@H](C)NC(=O)[C@@H](NC(=O)CCOCCOCCOCCOCCNC(=O)CCN2C(=O)C=CC2=O)C(C)C)cc1CN(C)C(=O)CCC[N+](C)(C)CCCS(=O)(=O)[O-])CC3`
Ans: 13.46

Q: Look up and report measured HIC retention time for this entry: `CC[C@@]1(O)C(=O)OCc2c1cc1n(c2=O)Cc2c-1nc1cc(F)c(C)c3c1c2[C@@H](NC(=O)OCc1ccc(NC(=O)[C@H](C)NC(=O)[C@@H](NC(=O)CCOCCOCCOCCOCCNC(=O)CCN2C(=O)C=CC2=O)C(C)C)cc1CN(C)C(=O)CCOCCOCCOCCOCCOCCOCCOCCOCCOC)CC3`
Ans: 16.002

Q: Look up and report measured HIC retention time for this entry: CC[C@H](C)[C@@H]([C@@H](CC(=O)N1CCC[C@H]1[C@H](OC)[C@@H](C)C(=O)N[C@H](C)[C@@H](O)c1ccccc1)OC)N(C)C(=O)[C@@H](NC(=O)[C@H](C(C)C)N(C)C(=O)OCc1ccc(NC(=O)[C@H](CCC(=O)NCC[N+](C)(C)CCCS(=O)(=O)[O-])NC(=O)[C@@H](NC(=O)CCCCCN2C(=O)C=CC2=O)C(C)C)cc1)C(C)C [LD-57] ({Hexanoyl(6-maleimido)}-VE(X1)[PABC][NMeV]V[Dil][Dolaproine]-X2)
Ans: 16.066

Q: Look up and report measured HIC retention time for this entry: `CC[C@@]1(O)C(=O)OCc2c1cc1n(c2=O)Cc2c-1nc1cc(F)c(C)c3c1c2[C@@H](NC(=O)OCc1ccc(NC(=O)[C@H](CCC(=O)N(CCCS(=O)(=O)[O-])CC[N+](C)(C)C)NC(=O)[C@@H](NC(=O)CCOCCOCCOCCOCCNC(=O)CCN2C(=O)C=CC2=O)C(C)C)cc1)CC3`
Ans: 13.392
